assay: self-splicing fitness, log relative to wild type (ln ratio); higher = more splicing; Tetrahymena group I intron in knt gene, E. coli kanamycin selection, DiMSum; sequences stand for … in CUCUCU…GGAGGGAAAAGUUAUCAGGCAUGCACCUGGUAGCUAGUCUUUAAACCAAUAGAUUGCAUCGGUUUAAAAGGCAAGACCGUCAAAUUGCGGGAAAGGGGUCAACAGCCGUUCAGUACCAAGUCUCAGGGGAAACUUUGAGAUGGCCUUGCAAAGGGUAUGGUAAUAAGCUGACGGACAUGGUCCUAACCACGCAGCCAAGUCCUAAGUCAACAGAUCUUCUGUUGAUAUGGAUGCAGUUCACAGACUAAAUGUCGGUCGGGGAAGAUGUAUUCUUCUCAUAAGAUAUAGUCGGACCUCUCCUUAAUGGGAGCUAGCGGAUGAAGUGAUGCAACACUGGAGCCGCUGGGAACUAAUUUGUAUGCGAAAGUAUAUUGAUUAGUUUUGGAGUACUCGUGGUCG; conditions: 30 °C;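 note: selection with 25 µg/mL kanamycin versus none on LB agar overnight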
Each entry falls in a class defined on self-splicing fitness (ln); the bands are low band: < -3; middle band: ≥ -3 and < -2; high band: ≥ -2

Please let me know in which category the item GUUGAGCAAUAUUACGAGGA belongs. middle band

State the class of the sequence shown: UUAUAGCAAUAUUACGUGGA middle band

Which of the defined bands does the recorded self-splicing fitness (ln) of ACACAGCAAUAUUACGGGAU sit within? high band

Hi, small favor: classify AUGAAGCAAUAUUACGUGCG by its self-splicing fitness (ln) when you get a moment. high band

Each sequence maps to one class by self-splicing fitness (ln). Which class for CCGCAGCAAUAUUACGAGUU ? low band

Any idea which band AUACAGCAAUAUUACGAACA is in? high band

Field: class (self-splicing fitness (ln)) — entry: UUGGAGCAAUAUUACGGUGA high band

Tag the class for GGCAAGCAAUAUUACGACAU high band

Which band does CCUGAGCAAUAUUACGUGCU fall in? low band

Which bin should I file AGUGAGCAAUAUUACGAAGA under? middle band

Band of AGCUAGCAAUAUUACGCAGG ? low band

Exercise: read the entry GCCUAGCAAUAUUACGGACA and state which class it falls under. high band

Hi, small favor: classify CGGAAGCAAUAUUACGAGCA by its self-splicing fitness (ln) when you get a moment. middle band

Into which bin does this sequence go? UGUUAGCAAUAUUACGCAAU low band

# bin label for CUACAGCAAUAUUACGACUA middle band

Category of CGGAAGCAAUAUUACGAAAG , please. high band

Tag the class for CGGGAGCAAUAUUACGACAG high band

Which class holds CACCAGCAAUAUUACGGUUG ? middle band

Which self-splicing fitness (ln) category applies to UGUAAGCAAUAUUACGGCUA here? high band

Exercise: read the entry UUAUAGCAAUAUUACGCCUC and state which class it falls under. middle band

Bin? GAACAGCAAUAUUACGGUAU high band

Which bin, given its self-splicing fitness (ln), does UCUUAGCAAUAUUACGCUUG occupy? middle band

# bin label for ACAAAGCAAUAUUACGGUGA high band

Class for CUCGAGCAAUAUUACGGAUU ? low band

Which bin should I file AAAAAGCAAUAUUACGCCUA under? high band

Which class does UCGUAGCAAUAUUACGGAGA fall in? middle band

Each sequence maps to one class by self-splicing fitness (ln). Which class for ACGGAGCAAUAUUACGAGGG ? low band

// return the class label for UGAUAGCAAUAUUACGGGCG high band

Which self-splicing fitness (ln) category applies to AUAAAGCAAUAUUACGCAAG here? high band

# bin label for CCGAAGCAAUAUUACGAGUA middle band

Bin? CAGGAGCAAUAUUACGGGCG high band

State the band of AAAUAGCAAUAUUACGCAGA middle band

Class (by measured self-splicing fitness (ln)) for AAGGAGCAAUAUUACGCCCC high band

For this sequence, which bin applies? CCUUAGCAAUAUUACGGUAG low band

Looking at CACUAGCAAUAUUACGUGCG , which class would you pick? middle band

# bin label for GAUCAGCAAUAUUACGGAAA high band

Form: Item = AUACAGCAAUAUUACGUUCC ; Class = ? middle band

Consider UAGCAGCAAUAUUACGGGAU . To which self-splicing fitness (ln) class does it belong? low band

// bin(item) where item = AACUAGCAAUAUUACGUCUA high band

Field: class (self-splicing fitness (ln)) — entry: CUACAGCAAUAUUACGUGUA low band

Classify this sequence: GUGCAGCAAUAUUACGUCGC high band

# classify by self-splicing fitness (ln) band: GACUAGCAAUAUUACGCAUC low band

Lab note: which band did GGUCAGCAAUAUUACGGGUG land in? high band

Returns: class label. Input: AGCCAGCAAUAUUACGUCCA middle band

Sort AGGGAGCAAUAUUACGAUUA into one of the categories. middle band

Using the reported self-splicing fitness (ln), which band applies to ACACAGCAAUAUUACGUAUA ? low band

Which band does UCAGAGCAAUAUUACGAGAU fall in? low band

Hey, which category is CUAUAGCAAUAUUACGCUAC in, do you know? low band

// return the class label for AUUCAGCAAUAUUACGCCCU high band

Form field 'band' for GAACAGCAAUAUUACGACUC high band

Assign a bin to CCAAAGCAAUAUUACGACAA middle band

Hi, small favor: classify ACUGAGCAAUAUUACGCCAA by its self-splicing fitness (ln) when you get a moment. low band

Which bin should I file AGGUAGCAAUAUUACGGCUU under? high band

Field: class (self-splicing fitness (ln)) — entry: AUGAAGCAAUAUUACGAUCA high band

Just checking, what class would you give AAAGAGCAAUAUUACGGUCA here? high band

Bin? AGAAAGCAAUAUUACGAGGG middle band

Pick a category. Item: CGUUAGCAAUAUUACGGGAC middle band

The entry to classify is AUAAAGCAAUAUUACGCUCG ; which class holds it? high band

Band of ACCGAGCAAUAUUACGCUCC ? middle band

Assign a category based on measured self-splicing fitness (ln) for CACGAGCAAUAUUACGGUCC and give only the class name. low band

For UUUCAGCAAUAUUACGUGGG , which self-splicing fitness (ln) bin applies? middle band

Which category fits this record: ACGAAGCAAUAUUACGUAAG middle band

Class? Entry: GUCCAGCAAUAUUACGCAAU high band

====

experiment: self-splicing fitness, log relative to wild type (ln ratio); higher = more splicing; Tetrahymena group I intron in knt gene, E. coli kanamycin selection, DiMSum; sequences stand for … in CUCUCU…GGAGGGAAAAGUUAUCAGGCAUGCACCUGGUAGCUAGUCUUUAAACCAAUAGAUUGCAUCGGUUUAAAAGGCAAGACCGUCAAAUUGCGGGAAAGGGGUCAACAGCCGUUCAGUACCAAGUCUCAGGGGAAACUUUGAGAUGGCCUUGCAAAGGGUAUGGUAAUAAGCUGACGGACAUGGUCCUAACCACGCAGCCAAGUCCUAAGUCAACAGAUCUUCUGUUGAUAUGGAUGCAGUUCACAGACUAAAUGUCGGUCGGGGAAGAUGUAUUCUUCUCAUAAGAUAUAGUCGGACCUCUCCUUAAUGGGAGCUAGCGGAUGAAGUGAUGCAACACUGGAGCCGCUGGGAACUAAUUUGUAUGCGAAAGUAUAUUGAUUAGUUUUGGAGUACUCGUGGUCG; settings: 37 °C
Rule: y for self-splicing fitness (ln) not less than -0.8, n for anything less.

State whether the measured self-splicing fitness (ln) reaches -0.8, counting equality as reaching it, for AUUAAGCAAUAUUACGCUCG y

Test whether the sequence GUUGAGCAAUAUUACGGUAA records self-splicing fitness (ln) of -0.8 or higher. n

# bool: self-splicing fitness (ln) of AUAGAGCAAUAUUACGGAUA >= -0.8 n

# check: self-splicing fitness (ln) of AUGCAGCAAUAUUACGGUCU is greater than or equal to -0.8 y

Can CCUGAGCAAUAUUACGCGAU be said to have self-splicing fitness (ln) at or above -0.8? n

Would you say AUGGAGCAAUAUUACGAUGU shows self-splicing fitness (ln) at minimum -0.8? y

Threshold query (self-splicing fitness (ln) >= -0.8) on GGCCAGCAAUAUUACGUCGA n

Is self-splicing fitness (ln) at least -0.8? Consider AUCCAGCAAUAUUACGUUAU y

API: above_or_equal(metric=self-splicing fitness (ln), cutoff=-0.8) for item UUUAAGCAAUAUUACGUCUG y

Does the reported self-splicing fitness (ln) for CACGAGCAAUAUUACGAUGG fall at or above the -0.8 mark? n

Threshold query (self-splicing fitness (ln) >= -0.8) on CACAAGCAAUAUUACGCGUA y

Hi, just wondering whether ACUUAGCAAUAUUACGAUUG shows self-splicing fitness (ln) of -0.8 or higher. y

Is reported self-splicing fitness (ln) greater than or equal to -0.8 here: CAAGAGCAAUAUUACGCGUA n

Hi team, for CAUUAGCAAUAUUACGGGUU , is the recorded self-splicing fitness (ln) at or above -0.8? n

Is self-splicing fitness (ln) at least -0.8? Consider UCAUAGCAAUAUUACGUGCU n

Given UACGAGCAAUAUUACGGGUU , state whether its self-splicing fitness (ln) is at least -0.8. n
